# Assayed target: Histone deacetylase 7 (Homo sapiens)
# Sequence (Q8WUI4 whole entry): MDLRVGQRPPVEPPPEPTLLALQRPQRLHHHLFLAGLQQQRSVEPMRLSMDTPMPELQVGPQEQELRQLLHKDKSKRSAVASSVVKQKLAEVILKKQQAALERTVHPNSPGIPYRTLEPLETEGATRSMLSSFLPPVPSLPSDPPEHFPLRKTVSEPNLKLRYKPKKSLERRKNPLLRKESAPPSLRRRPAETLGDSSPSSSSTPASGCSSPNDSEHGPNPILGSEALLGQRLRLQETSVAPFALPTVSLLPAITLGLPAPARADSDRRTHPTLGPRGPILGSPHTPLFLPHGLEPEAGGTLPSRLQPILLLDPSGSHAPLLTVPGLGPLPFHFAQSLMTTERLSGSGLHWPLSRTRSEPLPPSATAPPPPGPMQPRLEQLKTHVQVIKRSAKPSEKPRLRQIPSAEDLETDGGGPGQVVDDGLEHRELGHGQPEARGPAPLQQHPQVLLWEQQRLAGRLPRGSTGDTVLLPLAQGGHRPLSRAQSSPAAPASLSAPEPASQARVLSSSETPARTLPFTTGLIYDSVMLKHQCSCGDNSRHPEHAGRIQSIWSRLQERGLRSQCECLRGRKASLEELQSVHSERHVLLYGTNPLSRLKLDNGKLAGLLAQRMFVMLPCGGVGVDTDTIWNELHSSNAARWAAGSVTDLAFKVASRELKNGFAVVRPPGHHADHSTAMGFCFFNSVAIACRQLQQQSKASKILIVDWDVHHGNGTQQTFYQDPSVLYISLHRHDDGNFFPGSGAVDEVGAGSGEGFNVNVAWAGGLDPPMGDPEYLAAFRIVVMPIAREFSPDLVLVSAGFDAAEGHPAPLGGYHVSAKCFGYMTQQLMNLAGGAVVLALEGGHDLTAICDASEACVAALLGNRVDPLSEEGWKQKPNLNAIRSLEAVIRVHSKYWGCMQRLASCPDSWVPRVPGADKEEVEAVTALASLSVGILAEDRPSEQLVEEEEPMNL
Readout type: pIC50
// field semantics: pIC50 = negative decimal log of concentration (mol/L)

Determine from records and report pIC50 for O=C(CCC1C(=O)N(c2ccc(Cl)cc2)C(=O)N1Cc1ccccc1)Nc1ccc(C(=O)NO)cc1 (stereo not drawn)
5.06

Could you now consider this next compound?
Determine from records and report pIC50 for O=C(CCC1C(=O)N(c2ccc(Cl)cc2)C(=O)N1Cc1ccc(Br)cc1)Nc1ccc(C(=O)NO)cc1 (stereo not drawn)
5.22
